# pIC50 per entry
- system: CDK7/Cyclin H/MAT1 (Homo sapiens)
- Construct: made in house; host or cells: insect cell
- Sequence (P50613 whole entry): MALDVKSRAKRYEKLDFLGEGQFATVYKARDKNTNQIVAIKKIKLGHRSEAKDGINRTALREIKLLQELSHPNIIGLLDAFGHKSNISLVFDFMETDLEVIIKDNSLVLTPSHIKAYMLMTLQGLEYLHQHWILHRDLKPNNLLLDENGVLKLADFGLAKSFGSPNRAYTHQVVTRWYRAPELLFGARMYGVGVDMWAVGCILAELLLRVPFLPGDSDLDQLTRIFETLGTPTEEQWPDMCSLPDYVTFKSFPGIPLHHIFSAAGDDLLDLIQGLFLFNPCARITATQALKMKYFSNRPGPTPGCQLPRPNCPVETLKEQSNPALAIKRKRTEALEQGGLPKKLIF
- Sequence (P51946 whole entry partner): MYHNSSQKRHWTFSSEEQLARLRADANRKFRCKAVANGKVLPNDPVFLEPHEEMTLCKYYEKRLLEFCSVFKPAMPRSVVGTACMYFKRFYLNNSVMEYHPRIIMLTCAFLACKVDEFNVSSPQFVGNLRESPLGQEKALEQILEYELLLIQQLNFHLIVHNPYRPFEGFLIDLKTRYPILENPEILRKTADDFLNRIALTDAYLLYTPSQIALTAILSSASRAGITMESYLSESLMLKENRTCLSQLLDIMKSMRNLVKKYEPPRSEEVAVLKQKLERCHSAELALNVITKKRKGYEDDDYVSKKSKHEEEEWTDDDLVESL
- Sequence (P51948 whole entry partner): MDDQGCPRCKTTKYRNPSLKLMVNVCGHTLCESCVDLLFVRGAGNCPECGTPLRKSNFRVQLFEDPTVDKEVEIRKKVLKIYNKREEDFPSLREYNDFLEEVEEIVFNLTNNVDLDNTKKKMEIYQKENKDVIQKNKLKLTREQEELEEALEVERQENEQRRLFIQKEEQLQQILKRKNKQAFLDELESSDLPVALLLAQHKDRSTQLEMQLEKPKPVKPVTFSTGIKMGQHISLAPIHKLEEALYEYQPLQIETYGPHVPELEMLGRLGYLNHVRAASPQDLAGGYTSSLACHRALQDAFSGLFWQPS
- testDescription: CDK kinase activity mobility shift assay (MSA)
- Type: biochemical
- experimentalSetup: The CDK may be CDK7; mobility shift assay, 2 mM ATP, 3 nM CDK/Cyclin, 27° C. for 40 min; read-out: IC50 (CDK inhibition)
pIC50: −log10 of the molar value. Where a name gives a salt, the structure may show the parent alone.

| molecule | system | observedMeasurement |
| --- | --- | --- |
| CC(C)n1cnc2c(NCc3ccccc3-n3cccn3)nc(N3CCC(O)CC3)nc21 [Compound I-37] | CDK7/Cyclin H/MAT1 (Homo sapiens) | 6.30 to 7.00 |
| CC(C)n1cnc2c(NCc3ccccc3-n3cccn3)nc(N3CCC[C@@H](N)C3)nc21 [Compound I-11] | CDK7/Cyclin H/MAT1 (Homo sapiens) | > 7.00 |
| CC(C)n1cnc2c(NCc3ccccc3-n3cccn3)nc(N[C@H]3CCCNC3)nc21 [Compound I-13] | CDK7/Cyclin H/MAT1 (Homo sapiens) | 6.30 to 7.00 |
| CC(C)n1cnc2c(NCc3c(Cl)cccc3-n3ccc(C(C)(C)O)n3)nc(NC3CCNCC3)nc21 [Compound I-18] | CDK7/Cyclin H/MAT1 (Homo sapiens) | > 7.00 |
| CC(C)n1cnc2c(NCc3ccccc3-n3cccn3)nc(NC3CCNCC3)nc21 [Compound I-30, hydrochloride] | CDK7/Cyclin H/MAT1 (Homo sapiens) | 6.30 to 7.00 |
| CC(C)n1cnc2c(NCc3ccccc3-n3cccn3)nc(N3CCC(O)(Cn4cc(C(F)(F)F)cn4)CC3)nc21 [Compound I-35] | CDK7/Cyclin H/MAT1 (Homo sapiens) | < 6.00 |

Now let's try a different one.
// pIC50 (CDK7/Cyclin H/MAT1 (Homo sapiens)) for CCN(CC)C1CCN(c2nc(NCc3ccccc3-n3cccn3)c3ncn(C(C)C)c3n2)CC1 [Compound I-20] = > 7.00

Entry source: patent US20240352016A1
